Origin of the recorded values: patent US7964629B2

Target: recombinant human Icmt (Homo sapiens, UniProt O60725)
Construct: recombinant baculovirus containing the entire open reading frame of the human Icmt cDNA; made in house; host or cells: Sf9 insect cells (baculovirus); membrane fraction used
Sequence (O60725 whole entry): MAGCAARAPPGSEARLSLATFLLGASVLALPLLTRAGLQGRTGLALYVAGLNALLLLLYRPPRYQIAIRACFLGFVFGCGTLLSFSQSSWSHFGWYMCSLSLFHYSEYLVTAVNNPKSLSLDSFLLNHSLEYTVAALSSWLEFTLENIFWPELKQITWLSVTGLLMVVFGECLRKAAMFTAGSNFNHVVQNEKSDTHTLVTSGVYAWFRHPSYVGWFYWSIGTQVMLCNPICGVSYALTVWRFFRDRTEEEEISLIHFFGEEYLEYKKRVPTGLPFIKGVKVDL
Assay: Icmt assay: [3H]methyl incorporation from [3H]AdoMet into BFC
Assay type: biochemical
pIC50: −log10 of the molar value.
reportedMetric: pIC50

{"molecule": "CCOc1cccc(-c2ccc3c(c2)c(CC=O)cn3Cc2cccc(C(F)(F)F)c2)c1 [9F10/A119038]", "numericReadout": 5.22}

* * *

Molecular target: recombinant human Icmt (Homo sapiens)
Construct: recombinant baculovirus containing the entire open reading frame of the human Icmt cDNA; made in house; host or cells: Sf9 insect cells (baculovirus); membrane fraction used
Assay: Icmt assay: [3H]methyl incorporation from [3H]AdoMet into BFC
Type: biochemical
Conditions: Table 2, pre-incubation of enzyme with inhibitor; read-out: IC50 pre-inc

{"compoundStructure": "CCCCCCCCn1cc(CC=O)c2cc(-c3cccc(F)c3)ccc21", "IC50": "< 300 nM"}

* * *

molecules and their reported pIC50
Molecular target: recombinant human Icmt (Homo sapiens)
Construct: recombinant baculovirus containing the entire open reading frame of the human Icmt cDNA; made in house; host or cells: Sf9 insect cells (baculovirus); membrane fraction used
Experiment: Icmt assay: [3H]methyl incorporation from [3H]AdoMet into BFC
Format: biochemical
Settings: Table 1, R1 substituent x scaffold matrix; read-out: IC50
pIC50: −log10 of the molar value.
reportedMetric: pIC50

{"molecule": "CC(C)Cn1cc(CC(N)=O)c2cc(-c3cccc(F)c3)ccc21 [(a1)/drawing 3]", "testedSystem": "recombinant human Icmt (Homo sapiens)", "numericReadout": 4.86}
{"molecule": "CCCCCCCCn1cc(CC(N)=O)c2cc(-c3cccc(C)c3)ccc21 [cysmethynil]", "testedSystem": "recombinant human Icmt (Homo sapiens)", "numericReadout": 5.68}
